assay_text: APR_HepG2_MitoticArrest_72hr: Apredica 72-hour HepG2 Assay for Mitotic Arrest (AID 2282918)
study_conditions: high-content imaging, actives raise or lower the signal
The source made the active and inactive calls. How the source made its calls: active means hit-call score of the fitted dose curve at least 0.9, where 1 is the maximum; inactive means score below 0.9.
Entry note: the call must match one of 1 (active), 0 (inactive)

Sample answers from the record:
compound=CC(C)CCO assigned_label=0
compound=CCCCCCCCCCCCCCCO assigned_label=1
compound=CNCc1ccc(NC(=O)c2c[nH]c3c2C(=O)CCC3)cc1 assigned_label=0
compound=COCCOCCOCCOC assigned_label=0
compound="Fc1ccccc1[C@@H](F)COC1CCC(Nc2ncnc3[nH]ncc23)CC1 (some centres not stated)" assigned_label=1
compound=Cn1c(=O)c2c(ncn2C)n(C)c1=O assigned_label=0

Read the next record carefully.
Req: Fill in: this test's call for "CC(C)CCCCCCOC(=O)c1ccc(C(=O)OCCCCCCC(C)C)c(C(=O)OCCCCCCC(C)C)c1" is ___
Resp: 0
